# protocolNotes: ACEA_ER_80hr: ACEA Biosciences xCELLigence Real-Time Cell Analysis on Estrogen Receptor Agonism for Proliferation (AID 2282667)
# recordedConditions: T47D proliferation, impedance (xCELLigence), 80 h
Inconclusive results are not listed. Calls of active or inactive are those of the source. How the source made its calls: active means hit-call score of the fitted dose curve at least 0.9, where 1 is the maximum; inconclusive means response in the unintended direction; inactive means score below 0.9.
Your reply should match one of these outcome classes. active, inactive

CCCCOCC1CO1 (configuration not stated) : inactive
CCCCN(CCCC)N=O : inactive
OCC(F)(F)OC(F)(F)C(F)(F)OC(F)(F)C(F)(F)OC(F)(F)F : inactive
OCC(F)(F)OC(F)(F)C(F)(F)OC(F)(F)C(F)(F)OC(F)(F)CO : active
Oc1ccc(I)cc1 : inactive
CSC(C)(C)C=NO : inactive

Now take the following molecule into account.
Problem: Returns: the outcome recorded for `O=[N+]([O-])c1ccc(Cl)c(Cl)c1` in this assay.
Solution: inactive

###

# measuredOn: Hepatocyte nuclear factor 6 (Homo sapiens) (UniProt Q9UBC0)
# Sequence (Q9UBC0 whole entry, looked up): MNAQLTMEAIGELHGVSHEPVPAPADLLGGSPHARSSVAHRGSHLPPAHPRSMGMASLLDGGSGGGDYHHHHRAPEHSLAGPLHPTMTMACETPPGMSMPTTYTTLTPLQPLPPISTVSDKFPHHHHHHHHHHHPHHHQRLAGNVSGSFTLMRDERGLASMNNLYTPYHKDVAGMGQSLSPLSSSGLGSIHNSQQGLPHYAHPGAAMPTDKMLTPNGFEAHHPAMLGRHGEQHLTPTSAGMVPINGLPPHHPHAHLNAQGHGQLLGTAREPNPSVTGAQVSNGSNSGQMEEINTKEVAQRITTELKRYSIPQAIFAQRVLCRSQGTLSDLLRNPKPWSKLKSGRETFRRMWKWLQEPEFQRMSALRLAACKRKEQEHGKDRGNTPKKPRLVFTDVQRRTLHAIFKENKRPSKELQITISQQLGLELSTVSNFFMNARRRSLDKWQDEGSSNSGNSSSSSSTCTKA
# protocolNotes: ATG_HNF6_CIS: Attagene CIS-FACTORIAL HepG2 Assay for human Hepatocyte Nuclear Factor 6 (HNF6) (AID 2282952)
# recordedConditions: HepG2 Attagene cis-factorial HNF6 reporter transcription; actives raise or lower the signal
Calls of active or inactive are those of the source. The calls were made as follows: active = hit-call score of the fitted dose curve at least 0.9, where 1 is the maximum; inactive = score below 0.9.
Your reply should match one of these outcome classes. 1 (yes) = active, 0 (no) = inactive

CCOP(=S)(OCC)SCS(=O)(=O)CC : 0 (no)

Problem: Dear all, I need the recorded test outcome for `Cc1c([N+](=O)[O-])cc2c(c1[N+](=O)[O-])C(C)(C)CC2(C)C` , thank you.
Solution: 0 (no)

Problem: Please indicate how the test categorized `O=S(=O)(c1ccc(O)cc1)c1ccc(O)cc1` .
Solution: 0 (no)

Problem: Identify the outcome logged in this assay for the compound shown: FC(F)(F)C(F)(C(F)(F)F)C(F)(F)C(F)(F)CC1CO1 (stereo not drawn)
Solution: 0 (no)

###

# protocolNotes: CCTE_Shafer_MEA_dev_inter_network_spike_interval_mean: CCTE's Neural Network Formation Assay for Mean Inter-network Spike Interval, Shafer Lab (AID 2284047);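 on AC50: potency for a decrease in mean inter-network spike interval below DMSO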
The source made the active and inactive calls. Rule for the calls: active = hit-call score of the fitted dose curve at least 0.9, where 1 is the maximum; inactive = score below 0.9.
observedProperty: AC50

CCOc1ccc(C(C)(C)COCc2cccc(Oc3ccccc3)c2)cc1 : inactive
c1ccc(OP(Oc2ccccc2)Oc2ccccc2)cc1 : inactive
CO/N=C(/C(=O)OC)c1ccccc1COc1ccccc1C : 712 nM (active)
OCC(F)(F)OC(F)(F)C(F)(F)OC(F)(F)C(F)(F)OC(F)(F)CO : inactive
CC(C)(C)c1ccccc1OP(=O)(Oc1ccccc1)Oc1ccccc1 : inactive

Continue with the compound presented below.
Problem: Look at this compound and give its reported AC50. `O=P(Oc1ccccc1)(Oc1ccccc1)Oc1ccccc1`
Solution: inactive

###

# Read-out: Ezrin (EZR), EZR (gene 7430)
# protocolNotes: LTEA_HepaRG_EZR: Life Technologies and Expression Analysis (LTEA) Assay for Ezrin (EZR) using HepaRG (AID 2283491)
# recordedConditions: mRNA level, 48 h; actives raise or lower the signal
Active and inactive are the calls of the source. Rule for the calls: active = hit-call score of the fitted dose curve at least 0.9, where 1 is the maximum; inactive = score below 0.9.
I would appreciate it if you answered using one of these outcomes: active, inactive

CCC(C)(C)c1ccc(O)cc1 : inactive
CCN(CC)c1ccccc1 : inactive
CC(Cc1ccc(OCC(=O)O)cc1)NCC(O)c1csc(C(F)(F)F)n1 (stereo not given) : inactive

Problem: // outcome(item) with item = `COCCOCCO`
Solution: inactive

Problem: Entry `CN(C)C(=O)Cl` : call = ?
Solution: inactive

Problem: Which outcome was assigned to `CSC(C)(C)C=NO` in this test?
Solution: inactive

Problem: State the result this test recorded for `CCCCN(CCCC)N=O` .
Solution: inactive

Problem: Write down the call the test reported for this compound. Item: `c1ccc(OP(Oc2ccccc2)Oc2ccccc2)cc1`
Solution: inactive

Problem: Please indicate how the test categorized `c1nc[nH]n1` .
Solution: inactive

Problem: Look up the recorded call for `CC(C)(C)OOC(C)(C)C` in this test.
Solution: inactive
